Exercise: state measured inhibition for each of the compounds provided.
# measurement target: Gag-Pol polyprotein (Human immunodeficiency virus type 1 group M subtype B (isolate HXB2))
# assay info: HIV-1 RT RNase H inhibitor potency, dose response, biochemical, probe assessment (AID 652)
# test context: HIV-1 RT RNase H enzymatic assay, inhibition, at 50 µM, stronger effect = higher value

Recorded results for 8 compounds are shown here.
CCCCC[C@H](O)/C=C/[C@H]1C=CC(=O)[C@@H]1C/C=C\CCCC(=O)O : 101%
COc1cc(C(=O)Nc2oc(-c3ccccc3)c(-c3ccccc3)c2C#N)cc(OC)c1OC : 94%
O=C(Nc1nc(-c2ccncc2)cs1)c1ccco1 : 87.1%
Cc1nn(CCC#N)c2c1P(=S)(N1CCCC1)OC(c1ccc(F)cc1)=N2 (stereo unspecified) : 90.2%
Cc1cc(NC(=O)CSc2ccc(-c3nc4cc(C)c(C)cc4[nH]3)cn2)no1 : 83%
CC(C)(C)c1ccc(-c2nnc3sc(-c4ccncc4)nn23)cc1 : 96.3%
CCC1(C)Cc2c(sc3c2c(=O)n(C)c2nnc(SCc4ccc5c(c4)OCO5)n32)CO1 (stereo unspecified) : 96.2%
O=C(COc1ccc(Br)cc1)Nc1ccc(-c2nnc(-c3ccco3)o2)cc1 : 95.1%

Give me inhibition for each of these compounds, listed below.
1. COC(=O)c1ccc2c(c1)N(Cc1nc(-c3ccc(Cl)cc3)oc1C)C(=O)C1CCCN21 (stereo unspecified)
2. CCOc1ccc(N2Cc3ccccc3C2)cc1

Resp:
1: 78.9%; 2: 80%

Give me inhibition for each of these compounds, listed below.
1. COc1ccccc1-c1nnc2n1N=C(c1ccc(O)c(O)c1)CS2
2. Oc1ccc(-c2nc(-c3ccc(O)c(O)c3)cs2)cc1
3. Cc1cccc(-n2c(N)c(C(=O)N3CCN(C)CC3)sc2=S)c1

Resp:
["97%", "101%", "41.7%"]

Give me inhibition for each of these compounds, listed below.
1. O=C(NC1CCCCC1)c1sc(=S)n2c1[nH]c(=O)c1ccccc12
2. COc1cc(OC)c(C2CC(=O)N3CN(c4ccccc4C)CSC3=C2C#N)cc1OC (stereo unspecified)
3. COc1cc(-c2nn3c(Cc4ccccc4)nnc3s2)cc(OC)c1OC

Resp:
1: 96.5%; 2: 97.9%; 3: 86%
